Measured values drawn from PubChem BioAssay AID435021 for this set.

Biological target: Muscarinic acetylcholine receptor M1 (Homo sapiens)
Assay: M1 receptor antagonist activity of analogs, SAR follow-up, cell-based, CHO-K1 hM1, Fluo-4 calcium, ACh EC80 (AID 435021)
Conditions: at 30 µM, stronger effect = lower value
value.kind: remaining EC80 response (%)
Record the value in %, omitting the unit from your answer.

Here are 5 compounds together with their reported answers.
compound	value.kind	reading.unit	measured.result
O=C(CCNS(=O)(=O)c1cccc2nsnc12)N1CCN(c2cc(C(F)(F)F)ccn2)CC1	remaining EC80 response	%	35.4
O=C(CCNS(=O)(=O)c1cccc2nsnc12)N1CCN(c2nc(Cl)ns2)CC1	remaining EC80 response	%	31.6
O=C(CCNS(=O)(=O)c1cccc2nsnc12)N1CCN(c2cc(F)ccn2)CC1	remaining EC80 response	%	6.52
CN(CCC(=O)N1CCN(c2ccncc2)CC1)S(=O)(=O)c1cccc2nsnc12	remaining EC80 response	%	35.8
O=C(CCNS(=O)(=O)c1cccc2nsnc12)N1CCN(c2cccnc2)CC1	remaining EC80 response	%	13.6

Answer with reported remaining EC80 response of COc1cccnc1N1CCN(C(=O)C(F)CNS(=O)(=O)c2cccc3nsnc23)CC1 (stereo not given)
19.4

Report measured remaining EC80 response; entry is "O=C(CCNS(=O)(=O)c1cccc2nsnc12)N1CCN(c2nccs2)CC1"
5.68

Check the records and state remaining EC80 response for "O=C(CCNS(=O)(=O)c1cccc2nsnc12)N1CCN(c2cccc(Cl)n2)CC1"
5.92

Find the measured remaining EC80 response of "O=C(CCNS(=O)(=O)c1cccc2nsnc12)N1CCN(c2cc(Cl)ccn2)CC1" and report it.
10.1

Give the measured remaining EC80 response for "COc1cccnc1N1CCN(C(=O)CCNS(=O)(=O)c2ccccc2C#N)CC1"
91.8
